Reference for the values: paper PMC7515736

study_system: SEP3 (…3);AG (AGAMOUS) (Arabidopsis thaliana;Arabidopsis …, UniProt O22456;P17839 1-251;1-252, |)
Sequence (O22456 whole entry, chain 1 of 2): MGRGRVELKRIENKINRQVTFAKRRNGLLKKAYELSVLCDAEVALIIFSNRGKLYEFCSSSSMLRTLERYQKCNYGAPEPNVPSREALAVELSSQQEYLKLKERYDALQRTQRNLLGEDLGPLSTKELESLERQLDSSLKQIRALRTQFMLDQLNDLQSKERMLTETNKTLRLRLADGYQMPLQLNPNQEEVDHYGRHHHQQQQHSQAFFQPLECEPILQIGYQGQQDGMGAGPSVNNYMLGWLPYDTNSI
Sequence (P17839 whole entry, chain 2 of 2): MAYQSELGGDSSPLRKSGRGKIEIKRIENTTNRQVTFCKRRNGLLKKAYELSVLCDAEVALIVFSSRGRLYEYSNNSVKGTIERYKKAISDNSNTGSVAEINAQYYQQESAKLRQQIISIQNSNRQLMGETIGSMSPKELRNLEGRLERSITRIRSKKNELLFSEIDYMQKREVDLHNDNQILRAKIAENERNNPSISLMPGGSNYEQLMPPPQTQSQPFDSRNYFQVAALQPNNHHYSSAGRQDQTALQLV
experimental_details: EMSA; tetramer; EMSA as in the authors' ref. 20 (buffer, salt, pH, temperature not given); Cy5 probes; unpurified wheat germ TnT proteins
condition_info: protein: ivt;ivt; tags: C-terminal 3xFLAG;C-terminal 5xMyc; copies: 1;1; label: Cy5; blunt
endpoint: binding result

1. KNU -10 probe (86 bp) (dsDNA) DNA 1: GGTAAGAGAAACATAGAAACCTTCCATGTTTGGCAATTTCATCTTGGACTCTCTCTTGTCTTCTTTGTGCATCACAAGAACAACAA DNA 2: TTGTTGTTCTTGTGATGCACAAAGAAGACAAGAGAGAGTCCAAGATGAAATTGCCAAACATGGAAGGTTTCTATGTTTCTCTTACC :: binds
2. KNU +10 (96 bp) (dsDNA) DNA 1: AAACATAGAAACCTTCCATGTTTGGCAATTTCATCTTGGAAGTCAGTAGCTCTTGATTCACTCTCTCTTGTCTTCTTTGTGCATCACAAGAACAAC DNA 2: GTTGTTCTTGTGATGCACAAAGAAGACAAGAGAGAGTGAATCAAGAGCTACTGACTTCCAAGATGAAATTGCCAAACATGGAAGGTTTCTATGTTT :: binds
